method: survival rescue of mitochondrial mutant cells in low glucose, primary screen, MELAS cybrids, Rieske KO mouse fibroblasts, CellTiter-Glo (AID 1508586);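 note: test concentration not given here; z relative to plate mean and SD of compound and empty wells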
experimental.conditions: MELAS cybrid survival, CellTiter-Glo 48 h, stronger effect = higher value
Would you mind telling me the reported z-score of each entry?
One number for each entry.

Solved cases (4 shown):
compound=CCN(CC)CCOc1ccc(C(=C(Cl)c2ccccc2)c2ccccc2)cc1 measured_quantity=z-score result=-0.453
compound="O=c1[nH]c(=O)n(C2CC(O)C(CO)O2)cc1F (stereo unspecified)" measured_quantity=z-score result=-0.408
compound="COCC1=C(C(=O)OC(C)OC(=O)OC(C)C)N2C(=O)[C@@H](NC(=O)/C(=N\\OC)c3csc(N)n3)[C@H]2SC1 (stereo partly specified)" measured_quantity=z-score result=-0.0637
compound=CC(C)C[C@H](NC(=O)[C@@H](O)[C@H](N)Cc1ccccc1)C(=O)O measured_quantity=z-score result=-0.957

Field: z-score. Fill in for each record below.
1. CC(C)Cc1ccc([C@H](C)C(=O)O)cc1
2. O=C1NC(=O)C(c2ccccc2[N+](=O)[O-])=C1Nc1ccc(O)c(Cl)c1
3. COc1ccc2c(c1)c(CC(=O)N1CCOCC1)c(C)n2C(=O)c1ccc(Cl)cc1
4. CCC(NC(C)C)C(O)c1ccc(O)c(O)c1 (stereo unspecified)
5. O=c1cc(N2CCOCC2)oc2c(-c3ccccc3)cccc12
6. Cc1cc(NC(=O)Nc2ccc(N(C)C)cc2)c2cc(F)cc(F)c2n1
7. CC(C)NC[C@H](O)COc1cccc2ccccc12
8. COc1cc(C)c(/C=C/C(C)=C/C=C/C(C)=C/C(=O)O)c(C)c1C

Response line:
1: 0.343; 2: -0.406; 3: -0.237; 4: -0.772; 5: -0.417; 6: 1.11; 7: -0.245; 8: 0.713

Give me z-score for each of these compounds, listed below.
1. CN1CCN(C(c2ccccc2)c2ccc(Cl)cc2)CC1 (stereo unspecified)
2. CC(NC(=O)c1ccccc1N=Cc1c(O)ccc2ccccc12)c1ccccc1 (stereo unspecified)
3. CCN(CC)CCOCCOC(=O)C(CC)(CC)c1ccccc1

Response line:
1. 0.513
2. -0.168
3. -0.986

Hi, could you look up z-score for each item in my list?
1. CCCCc1nc(Cl)c(CO)n1Cc1ccc(-c2ccccc2-c2nnn[nH]2)cc1
2. CCCc1nc(C(C)(C)O)c(C(=O)O)n1Cc1ccc(-c2ccccc2-c2nn[nH]n2)cc1
3. COc1cc(-c2ccc(N=Nc3ccc4c(S(=O)(=O)O)cc(S(=O)(=O)O)c(N)c4c3O)c(OC)c2)ccc1N=Nc1ccc2c(S(=O)(=O)O)cc(S(=O)(=O)O)c(N)c2c1O
4. CC(C)(S)C(N)C(=O)O (stereo unspecified)
5. CN1C2CCC1CC(OC(c1ccccc1)c1ccccc1)C2 (stereo unspecified)

Response line:
1. -0.447
2. 0.347
3. -1.41
4. 0.615
5. -0.325

Prompt line: Recorded z-score for CCN(CC)CCCC(C)Nc1nc(C)cc(Nc2ccc3nc(C)cc(N)c3c2)n1 (stereo unspecified) , please?
Response line: -0.488
